# experimental_system: Ca2+/calmodulin-dependent protein kinase II (CaM kinase II) (Rattus norvegicus) (UniProt P11275+P08413+P15791+P11730)
# assay_text: Inhibition of rat Calcium/calmodulin-dependent protein kinase type II at 30 uM
# Type: protein assay
What inhibition was measured for each of the following?
Give bare numbers, in %.

Reference set, count: 5
Sample Clc1ncnc2c1ncn2Cc1ccccc1 ; inhibition observed: 7

Sample Fc1ccc(Cc2[nH]cnc3ncnc2-3)cc1 ; inhibition observed: 8

Sample Cn1cnc2c(Nc3ccccc3)ncnc21 ; inhibition observed: 0

Sample Cn1cnc2c(Nc3ccc(F)cc3)ncnc21 ; inhibition observed: 8

Sample Cn1c(-c2ccc(S(C)(=O)=O)cc2)nc2c(Sc3ccc(F)cc3)ncnc21 ; inhibition observed: 0

Working through the 2 compounds below one at a time, give inhibition for each.
1. c1ccc(Cc2[nH]cnc3ncnc2-3)cc1
2. Fc1ccc(Cn2cnc3c(Sc4ccc(F)cc4)ncnc32)cc1

Result:
[2, 0]

---

# experimental_system: Mitogen-activated protein kinase 8 (Homo sapiens)
# assay_text: Inhibition of human c-Jun N-terminal kinase-1 alpha-1 at 30 uM
What inhibition was measured for each of the following?
Give bare numbers, in %.

Reference set, count: 6
Observed inhibition on Mitogen-activated protein kinase 8 (Homo sapiens), entry COc1ncnc2ncn(Cc3ccc(F)cc3)c12 , equals 0

Observed inhibition on Mitogen-activated protein kinase 8 (Homo sapiens), entry Cn1c(-c2ccccc2)nc2c(-c3ccc(F)cc3)ncnc21 , equals 2

Observed inhibition on Mitogen-activated protein kinase 8 (Homo sapiens), entry Fc1ccc(-[n+]2c[nH]c3ncncc32)cc1 , equals 1

Observed inhibition on Mitogen-activated protein kinase 8 (Homo sapiens), entry Cn1c(-c2ccccc2)nc2c(Sc3ccc(F)cc3)ncnc21 , equals 2

Observed inhibition on Mitogen-activated protein kinase 8 (Homo sapiens), entry Cn1cnc2c(-c3ccccc3)ncnc21 , equals 9

Observed inhibition on Mitogen-activated protein kinase 8 (Homo sapiens), entry Cn1cnc2c(Sc3ccc(F)cc3)ncnc21 , equals 10

Working through the 7 compounds below one at a time, give inhibition for each.
1. c1ccc(-[n+]2c[nH]c3ncncc32)cc1
2. Cn1cnc2c(SCc3ccc(F)cc3)ncnc21
3. Fc1ccc(C[n+]2c[nH]c3ncncc32)cc1
4. Cn1c(Br)nc2c(Sc3ccccc3)ncnc21
5. Fc1ccc(Cn2cnc3c(Cl)ncnc32)cc1
6. Fc1ccc(Cn2cnc3c(Sc4ccccc4)ncnc32)cc1
7. Nc1[nH]cnc2ncnc1-2

Result:
1: 0; 2: 10; 3: 0; 4: 0; 5: 0; 6: 0; 7: 0

---

# experimental_system: Mitogen-activated protein kinase 8 (Homo sapiens) (UniProt P45983)
# Sequence (P45983 whole entry): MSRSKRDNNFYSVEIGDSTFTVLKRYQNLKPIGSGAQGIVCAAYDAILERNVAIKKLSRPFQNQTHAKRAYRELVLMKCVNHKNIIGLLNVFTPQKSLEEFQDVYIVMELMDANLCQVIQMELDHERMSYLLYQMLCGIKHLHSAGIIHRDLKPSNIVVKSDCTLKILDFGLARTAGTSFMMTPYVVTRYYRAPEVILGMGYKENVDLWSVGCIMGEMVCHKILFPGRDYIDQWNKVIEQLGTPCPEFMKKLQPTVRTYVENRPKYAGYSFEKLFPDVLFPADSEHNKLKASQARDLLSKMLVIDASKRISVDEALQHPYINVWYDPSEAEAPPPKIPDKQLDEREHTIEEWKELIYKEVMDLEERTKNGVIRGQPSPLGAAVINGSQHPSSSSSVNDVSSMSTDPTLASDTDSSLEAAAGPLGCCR
# assay_text: Inhibition of human c-Jun N-terminal kinase-1 alpha-1 at 30 uM
Give condition met when the value for inhibition is at least 1%. Give condition not met when it is less.

These recorded examples may help you get a feel for the data.
Ask: I'd appreciate it if you could say whether c1ccc(C[n+]2c[nH]c3ncncc32)cc1 has inhibition at least equal to 1%.
Result: condition not met

Ask: I'd appreciate it if you could say whether CSc1ccc(-c2nc3c(Sc4ccc(F)cc4)ncnc3n2C)cc1 has inhibition at least equal to 1%.
Result: condition met

Ask: I'd appreciate it if you could say whether Fc1ccc(CSc2[nH]cnc3ncnc2-3)cc1 has inhibition at least equal to 1%.
Result: condition not met

Ask: I'd appreciate it if you could say whether Nc1ncnc2ncn(Cc3ccc(F)cc3)c12 has inhibition at least equal to 1%.
Result: condition met

Ask: I'd appreciate it if you could say whether Fc1ccc(Nc2[nH]cnc3ncnc2-3)cc1 has inhibition at least equal to 1%.
Result: condition met

More entries:
Ask: I'd appreciate it if you could say whether Cn1c(-c2ccc(S(C)(=O)=O)cc2)nc2c(Sc3ccc(F)cc3)ncnc21 has inhibition at least equal to 1%.
Result: condition not met

Ask: I'd appreciate it if you could say whether Cn1cnc2c(-c3ccc(F)cc3)ncnc21 has inhibition at least equal to 1%.
Result: condition met

Ask: I'd appreciate it if you could say whether Cn1cnc2c(Nc3ccc(F)cc3)ncnc21 has inhibition at least equal to 1%.
Result: condition met

Ask: I'd appreciate it if you could say whether Fc1ccc(Oc2[nH]cnc3ncnc2-3)cc1 has inhibition at least equal to 1%.
Result: condition not met

Ask: I'd appreciate it if you could say whether c1ccc(Sc2ncnc3[nH]cnc23)cc1 has inhibition at least equal to 1%.
Result: condition not met

Ask: I'd appreciate it if you could say whether Fc1ccc(Cc2[nH]cnc3ncnc2-3)cc1 has inhibition at least equal to 1%.
Result: condition not met

---

# experimental_system: Mitogen-activated protein kinase 10 (Rattus norvegicus) (UniProt P49187)
# Sequence (P49187 whole entry): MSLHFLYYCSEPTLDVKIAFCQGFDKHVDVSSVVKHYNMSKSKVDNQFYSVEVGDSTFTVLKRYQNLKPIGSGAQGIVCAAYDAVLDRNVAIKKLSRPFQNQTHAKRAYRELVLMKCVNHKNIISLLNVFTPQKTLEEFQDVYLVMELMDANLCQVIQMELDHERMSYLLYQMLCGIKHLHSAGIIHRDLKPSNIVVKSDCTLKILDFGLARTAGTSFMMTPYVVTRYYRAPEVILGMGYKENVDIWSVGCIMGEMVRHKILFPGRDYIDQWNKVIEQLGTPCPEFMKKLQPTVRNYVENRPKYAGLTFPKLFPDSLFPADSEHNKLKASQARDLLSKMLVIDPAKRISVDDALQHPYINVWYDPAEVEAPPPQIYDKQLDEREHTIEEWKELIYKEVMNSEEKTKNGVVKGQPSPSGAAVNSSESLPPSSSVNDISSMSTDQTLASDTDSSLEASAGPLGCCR
# assay_text: Inhibition of rat c-Jun N-terminal kinase-3 at 30 uM
What inhibition was measured for each of the following?
Numbers only, in %.

Reference set, count: 5
Sample Clc1ncnc2ncn(Cc3ccccc3)c12 ; inhibition observed: 11

Sample Cn1cnc2c(/C=C/c3ccccc3)ncnc21 ; inhibition observed: 8

Sample Cn1cnc2c(SCc3ccccc3)ncnc21 ; inhibition observed: 5

Sample Fc1ccc(Cn2cnc3ncnc(Cl)c32)cc1 ; inhibition observed: 21

Sample Cn1c(-c2ccc(S(C)(=O)=O)cc2)nc2c(Sc3ccc(F)cc3)ncnc21 ; inhibition observed: 5

Working through the 2 molecules below one at a time, give inhibition for each.
1. c1ccc(C[n+]2c[nH]c3ncncc32)cc1
2. Cn1cnc2c(-c3ccccc3)ncnc21

Result:
[13, 14]

Working through the 5 molecules below one at a time, give inhibition for each.
1. c1ccc(-[n+]2c[nH]c3ncncc32)cc1
2. Fc1ccc(Cn2cnc3c(Cl)ncnc32)cc1
3. Cn1cnc2c(Nc3ccccc3)ncnc21
4. COc1ncnc2ncn(Cc3ccc(F)cc3)c12
5. Cn1c(-c2ccccc2)nc2c(-c3ccc(F)cc3)ncnc21

Result:
[3, 20, 5, 30, 12]

Working through the 2 molecules below one at a time, give inhibition for each.
1. c1ccc(Cn2cnc3c(Sc4ccccc4)ncnc32)cc1
2. CSc1ccc(-c2nc3c(Sc4ccccc4)ncnc3n2C)cc1

Result:
0
0

---

# experimental_system: Dual specificity mitogen-activated protein kinase kinase 1 (Homo sapiens)
# assay_text: Inhibition of human Mitogen activated protein kinase kinase 1 (MEK1) at 30 uM
readout_type: inhibition

Sample c1ccc(Sc2ncnc3[nH]cnc23)cc1 ; inhibition observed: 0%

Sample Nc1[nH]cnc2ncnc1-2 ; inhibition observed: 9%

Sample Nc1ncnc2c1ncn2Cc1ccccc1 ; inhibition observed: 7%

Sample Cn1c(-c2ccccc2)nc2c(-c3ccc(F)cc3)ncnc21 ; inhibition observed: 5%

Sample c1ccc(Oc2ncnc3[nH]cnc23)cc1 ; inhibition observed: 1%

Sample c1ccc(Sc2[nH]cnc3nccc2-3)cc1 ; inhibition observed: 41%

Sample Cn1c(-c2ccc(S(C)(=O)=O)cc2)nc2c(Sc3ccccc3)ncnc21 ; inhibition observed: 4%

Sample Cn1c(C#CCCO)nc2c(Sc3ccccc3)ncnc21 ; inhibition observed: 0%

More entries:
Sample Cn1cnc2c(Sc3ccccc3)ncnc21 ; inhibition observed: 3%

---

# experimental_system: Dual specificity mitogen-activated protein kinase kinase 1 (Homo sapiens) (UniProt Q02750)
# Sequence (Q02750 whole entry): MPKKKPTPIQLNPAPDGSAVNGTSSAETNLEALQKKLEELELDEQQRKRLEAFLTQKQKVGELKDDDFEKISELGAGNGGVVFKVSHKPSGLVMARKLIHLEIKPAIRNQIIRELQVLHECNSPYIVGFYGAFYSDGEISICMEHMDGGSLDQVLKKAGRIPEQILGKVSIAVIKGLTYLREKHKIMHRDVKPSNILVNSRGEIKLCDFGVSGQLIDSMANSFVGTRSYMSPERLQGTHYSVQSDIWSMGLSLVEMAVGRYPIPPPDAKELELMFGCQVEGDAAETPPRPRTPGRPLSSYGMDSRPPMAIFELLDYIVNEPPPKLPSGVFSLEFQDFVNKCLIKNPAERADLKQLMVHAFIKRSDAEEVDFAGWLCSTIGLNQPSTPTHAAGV
# assay_text: Inhibition of human Mitogen activated protein kinase kinase 1 (MEK1) at 30 uM
readout_type: inhibition (%)
Give bare numbers, in %.

Reference set, count: 3
Sample Clc1ncnc2ncn(Cc3ccccc3)c12 ; inhibition observed: 0

Sample Fc1ccc(Cc2[nH]cnc3ncnc2-3)cc1 ; inhibition observed: 0

Sample Cn1c(-c2ccc(S(C)(=O)=O)cc2)nc2c(Sc3ccc(F)cc3)ncnc21 ; inhibition observed: 0

Working through the 7 compounds below one at a time, give inhibition for each.
1. Cn1c(-c2ccc([S+](C)[O-])cc2)nc2c(Sc3ccccc3)ncnc21 (configuration not stated)
2. c1ccc(Cc2[nH]cnc3ncnc2-3)cc1
3. Fc1ccc(Cn2cnc3c(Cl)ncnc32)cc1
4. Cn1cnc2c(-c3ccc(F)cc3)ncnc21
5. Cn1cnc2c(Sc3ccc(F)cc3)ncnc21
6. Cn1cnc2c(SCc3ccccc3)ncnc21
7. Fc1ccc(Oc2[nH]cnc3ncnc2-3)cc1

Result:
[3, 3, 1, 1, 6, 6, 0]

---

# experimental_system: Protein kinase C alpha type (Homo sapiens) (UniProt P17252)
# assay_text: Inhibition of human Protein kinase C alpha
# Set-up: concentration or dose not given beside the values
# assay_context: concentration not given here
readout_type: inhibition (%)
Numbers only, in %.

Observed inhibition on Protein kinase C alpha type (Homo sapiens) (UniProt P17252), entry Fc1ccc(Sc2ncnc3[nH]cnc23)cc1 , equals 9

Observed inhibition on Protein kinase C alpha type (Homo sapiens) (UniProt P17252), entry c1ccc(C[n+]2c[nH]c3ncncc32)cc1 , equals 18

Observed inhibition on Protein kinase C alpha type (Homo sapiens) (UniProt P17252), entry Cn1c(-c2ccc(S(C)(=O)=O)cc2)nc2c(Sc3ccccc3)ncnc21 , equals 18

Observed inhibition on Protein kinase C alpha type (Homo sapiens) (UniProt P17252), entry Fc1ccc(Sc2ncnc3c2ncn3Cc2ccccc2)cc1 , equals 0

Observed inhibition on Protein kinase C alpha type (Homo sapiens) (UniProt P17252), entry Cn1c(-c2ccc([S+](C)[O-])cc2)nc2c(Sc3ccc(F)cc3)ncnc21 (configuration not stated) , equals 15

Working through the 3 compounds below one at a time, give inhibition for each.
1. Cn1cnc2c(-c3ccc(F)cc3)ncnc21
2. Fc1ccc(Cc2[nH]cnc3ncnc2-3)cc1
3. Cn1c(C#CCCO)nc2c(Sc3ccccc3)ncnc21

Result:
[8, 0, 18]
